Molecular target: rat lens aldose reductase (rAR) (Rattus norvegicus)
Construct: from tissue; host or cells: lens of Sprague-Dawley rats (homogenate supernatant)
Experiment: Rat lens aldose reductase (rAR) inhibition, NADPH decrease at 340 nm
Assay type: biochemical
Conditions: rAR IC50
experimental.readout: pIC50
In simple prose, pIC50 is minus the logarithm base ten of a concentration in moles per litre.

Prompt line: Please report the measured pIC50 for O=C(/C=C/c1ccc(O)c(O)c1)O[C@H](Cc1ccc(O)c(O)c1)C(=O)O [Compound 4, rosmarinic acid]
Response line: 5.56

----------
Target: human recombinant aldose reductase (rhAR) (Homo sapiens, UniProt P15121)
Experiment: Human recombinant aldose reductase (rhAR) inhibition
experimental.readout: pIC50
In simple prose, pIC50 is minus the logarithm base ten of a concentration in moles per litre.

1. O=C(/C=C/c1ccc(O)c(O)c1)O[C@H](Cc1ccc(O)c(O)c1)C(=O)O [Compound 4, rosmarinic acid] | 4.73

Now turn to the next compound.
Prompt line: Please report the measured pIC50 for C=COC(=O)/C=C/c1ccc(O)c(O)c1 [Compound 5, caffeic acid ethylene ester]
Response line: 4.90
